Recorded measurements of log10(koff), one per entry
- assay target: Human SARS-CoV-2_Wuhan S (SmT1) (SARS-CoV-2 (Wuhan), UniProt P0DTC2 14-1208)
- protocol description: SPR, VHH over immobilised S
Quick note: numbers are log10 of koff, with s⁻¹ as the unit.

[[record]]
binder = "NRCoV2-02 VHH (VHH) VHH: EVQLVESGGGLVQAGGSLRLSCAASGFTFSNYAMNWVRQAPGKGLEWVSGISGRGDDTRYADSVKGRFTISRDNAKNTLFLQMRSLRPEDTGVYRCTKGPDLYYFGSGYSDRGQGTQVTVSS"
quantity_kind = "log10(koff)"
measured_number = -2.90


Query: Tell us which log10(koff) value is on record for NRCoV2-SR16 VHH (VHH) VHH: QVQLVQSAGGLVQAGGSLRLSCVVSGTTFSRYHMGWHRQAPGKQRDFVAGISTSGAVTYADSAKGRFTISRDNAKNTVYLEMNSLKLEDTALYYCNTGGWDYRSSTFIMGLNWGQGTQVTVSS
Response: -3.02

Query: Tell us which log10(koff) value is on record for NRCoV2-S2G4 VHH (VHH) VHH: QVQLVQSGGGLVQAGGSLTLSCAPSGSTFSGYATNWYRQAPGKQRELVATISSDGDKNYADSVKGRFTISRDNAKNTVYLQMNSLKPEDTAVYYCNKHWWTGDWWGQGTQVTVSS
Response: -3.68

Query: Tell us which log10(koff) value is on record for NRCoV2-MRed20 VHH (VHH) VHH: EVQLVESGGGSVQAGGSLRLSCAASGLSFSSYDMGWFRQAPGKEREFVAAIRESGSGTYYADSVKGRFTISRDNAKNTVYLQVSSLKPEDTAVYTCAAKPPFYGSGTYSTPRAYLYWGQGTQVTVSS
Response: -4.84

Query: Tell us which log10(koff) value is on record for NRCoV2-MRed19 VHH (VHH) VHH: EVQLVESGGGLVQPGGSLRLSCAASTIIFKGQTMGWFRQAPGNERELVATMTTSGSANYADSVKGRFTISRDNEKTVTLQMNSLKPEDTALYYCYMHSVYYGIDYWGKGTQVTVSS
Response: -2.93

Query: Tell us which log10(koff) value is on record for NRCoV2-17 VHH (VHH) VHH: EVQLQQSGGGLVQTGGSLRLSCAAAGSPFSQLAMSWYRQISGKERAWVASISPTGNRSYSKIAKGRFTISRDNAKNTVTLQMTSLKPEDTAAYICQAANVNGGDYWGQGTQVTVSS
Response: -4.02

Query: Tell us which log10(koff) value is on record for NRCoV2-20 VHH (VHH) VHH: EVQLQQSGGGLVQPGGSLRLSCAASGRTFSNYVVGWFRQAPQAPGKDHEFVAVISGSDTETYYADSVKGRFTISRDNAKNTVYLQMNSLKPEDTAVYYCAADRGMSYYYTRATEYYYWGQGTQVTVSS
Response: -1.94
